assay.target: histamine (Cavia porcellus)
Construct: from tissue
experimental.details: Antihistamine activity by the method of Alps et al.
study.conditions: result in words
observable: antihistamine activity

Field: example entries. Status: answers known.
INSERT INTO measurements (compound, experimental_value) VALUES
  ('Cc1ccc(C(=O)CCCN2CCC(NC(=O)c3ccccc3)CC2)c(C)c1', 'antihistamine'),
  ('O=C(NC1CCN(CC(O)c2ccccc2)CC1)c1ccccc1 (stereo not drawn)', 'antihistamine'),
  ('O=C(NC1CCN(CCc2ccc(O)c(O)c2)CC1)c1ccccc1', 'antihistamine'),
  ('O=C(CCCN1CCC(NC(=O)c2ccccc2)CC1)c1ccc(F)cc1 [Example 19]', 'antihistamine');

[in] Name the recorded antihistamine activity of the compound listed here: `O=C(CCCN1CCC(NC(=O)c2ccccc2)CC1)c1ccccc1`
[out] antihistamine

[in] Name the recorded antihistamine activity of the compound listed here: `O=C(NC1CCN(CCc2ccc3ccccc3c2)CC1)c1ccccc1`
[out] antihistamine

[in] Name the recorded antihistamine activity of the compound listed here: `O=C(NC1CCN(CCc2ccccn2)CC1)c1ccccc1`
[out] antihistamine

---

assay.target: histamine (Cavia porcellus, UniProt P31389)
Construct: from tissue
Sequence (P31389 whole entry): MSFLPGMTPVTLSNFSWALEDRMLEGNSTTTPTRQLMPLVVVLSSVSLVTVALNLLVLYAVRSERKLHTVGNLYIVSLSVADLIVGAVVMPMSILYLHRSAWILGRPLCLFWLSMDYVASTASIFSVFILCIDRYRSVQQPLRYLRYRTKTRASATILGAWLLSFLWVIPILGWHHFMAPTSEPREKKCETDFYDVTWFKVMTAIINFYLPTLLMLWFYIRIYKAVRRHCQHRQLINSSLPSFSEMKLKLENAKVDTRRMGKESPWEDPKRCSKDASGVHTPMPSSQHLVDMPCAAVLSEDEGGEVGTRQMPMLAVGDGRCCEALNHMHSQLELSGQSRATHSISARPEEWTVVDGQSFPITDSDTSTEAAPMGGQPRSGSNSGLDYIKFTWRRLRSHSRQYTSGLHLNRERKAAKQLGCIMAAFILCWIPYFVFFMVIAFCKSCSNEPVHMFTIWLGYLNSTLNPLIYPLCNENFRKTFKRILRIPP
experimental.details: Antihistamine activity by the method of Alps et al.
study.conditions: result in words
observable: antihistamine activity

Field: example entries. Status: answers known.
INSERT INTO measurements (molecule, observable, experimental_value) VALUES
  ('O=C(NC1CCN(CCCCc2ccccc2)CC1)c1ccccc1 [Example 46, 1-(4-Phenylbutyl)-4-benzamidopiperidine]', 'antihistamine activity', 'antihistamine activity'),
  ('O=C(NC1CCN(CCc2ccncc2)CC1)c1ccccc1 [Example 93]', 'antihistamine activity', 'antihistamine activity'),
  ('O=C(CCCN1CCC(NC(=O)c2ccccc2)CC1)c1ccc(F)cc1 [Example 42]', 'antihistamine activity', 'antihistamine'),
  ('O=C(NC1CCN(CCc2ccc(Cl)c(Cl)c2)CC1)c1ccccc1 [Example 37]', 'antihistamine activity', 'antihistamine'),
  ('O=C(NC1CCN(CCC2=CCc3ccccc32)CC1)c1ccccc1 [Example 14]', 'antihistamine activity', 'antihistamine activity');

[in] Given Cc1ccc(C)c(C(=O)CCCN2CCC(NC(=O)c3ccccc3)CC2)c1 [Example 44] , report its antihistamine activity on histamine (Cavia porcellus, UniProt P31389).
[out] antihistamine
